molecular target: purified murine COX-2 (Mus musculus, UniProt Q05769); assay: Inhibition of mCOX-2 dependent oxygenation of 2-AG and AA by profens in vitro; format: biochemical; parameters: made in house; host or cells: insect cells; conditions: achiral profens; at 10 μM inhibitor; AA 5 μM; read-out: AA % Inhibition
Sequence (Q05769 18-604): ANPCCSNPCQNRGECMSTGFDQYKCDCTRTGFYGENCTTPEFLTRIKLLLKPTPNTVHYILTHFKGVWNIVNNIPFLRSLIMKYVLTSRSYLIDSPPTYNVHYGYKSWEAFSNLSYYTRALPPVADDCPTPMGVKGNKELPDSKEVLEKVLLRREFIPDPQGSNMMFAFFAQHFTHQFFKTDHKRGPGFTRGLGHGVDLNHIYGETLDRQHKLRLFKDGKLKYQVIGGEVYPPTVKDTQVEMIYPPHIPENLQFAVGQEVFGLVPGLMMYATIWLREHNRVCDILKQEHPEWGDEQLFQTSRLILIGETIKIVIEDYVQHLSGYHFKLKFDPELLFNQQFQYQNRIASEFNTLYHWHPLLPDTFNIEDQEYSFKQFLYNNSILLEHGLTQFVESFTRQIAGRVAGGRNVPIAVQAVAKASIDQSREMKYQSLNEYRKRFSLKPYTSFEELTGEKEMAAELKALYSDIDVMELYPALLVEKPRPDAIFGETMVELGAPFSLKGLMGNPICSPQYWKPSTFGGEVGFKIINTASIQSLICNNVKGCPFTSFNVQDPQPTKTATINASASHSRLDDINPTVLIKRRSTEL
// classify(record): look up inhibition at 10 µM in ranges bottom = under 6%, middle = from 6% up to 20%, top = 20% and over

See these solved cases before continuing.
{"columns": ["QUERY_SMILES", "SUBJECT_OF_TEST", "CLASS_NAME"],
 "data": [
  ["O=C(O)Cc1cccc(Oc2ccccc2)c1", "purified murine COX-2 (Mus musculus, UniProt Q05769)", "top"],
  ["COc1ccc2cc(CC(=O)O)ccc2c1", "purified murine COX-2 (Mus musculus, UniProt Q05769)", "middle"],
  ["O=C(c1ccccc1)c1cccc(C2(C(=O)O)CC2)c1", "purified murine COX-2 (Mus musculus, UniProt Q05769)", "middle"],
  ["CC(C)(C(=O)O)c1cccc(C(=O)c2ccccc2)c1", "purified murine COX-2 (Mus musculus, UniProt Q05769)", "top"],
  ["O=C(O)C1(c2ccc(-c3ccccc3)c(F)c2)CC1", "purified murine COX-2 (Mus musculus, UniProt Q05769)", "bottom"],
  ["O=C(O)Cc1ccc(-c2ccccc2)c(F)c1", "purified murine COX-2 (Mus musculus, UniProt Q05769)", "middle"],
  ["O=C(O)C1(c2cccc(Oc3ccccc3)c2)CC1", "purified murine COX-2 (Mus musculus, UniProt Q05769)", "middle"]
]}

For the next question, use this molecule.
Lookup: Hi there! Could you help me figure out the category for CC(C)Cc1ccc(C(C)(C)C(=O)O)cc1 please?
Found: bottom

* * *

target: wild type mCOX-2 (Mus musculus, UniProt Q05769); assay: biochemical; details: AA IC50, AA oxygenation by COX-2
ENDPOINT: pIC50
pIC50 (log units): -log10 of the concentration in mol/L.

Please review the following examples before continuing.
{"columns": ["QUERY_SMILES", "pIC50"],
 "data": [
  ["COc1ccc2c(c1)c(CC(=O)NCCO)c(C)n2C(=O)c1ccc(Cl)cc1", 6.58],
  ["COc1ccc2c(c1)c(CC(=O)N(C)C)c(C)n2C(=O)c1ccc(Cl)cc1", 4.72],
  ["CCN(CC)C(=O)Cc1c(C)n(C(=O)c2ccc(Cl)cc2)c2ccc(OC)cc12", 4.64]
]}

Please look at the following molecule next.
Lookup: Assign pIC50 to the following record: COc1ccc2c(c1)c(CC(N)=O)c(C)n2C(=O)c1ccc(Cl)cc1
Found: 6.21

* * *

biological target: UniProt:Q05769; assay: Inhibition of mCOX-2-dependent oxygenation of 2-AG and AA by lumiracoxib and derivatives in vitro; format: biochemical; set-up: made in house; host or cells: insect cells; dose or concentration left out as unconfirmed; conditions: 15 min incubation; read-out: Maximum inhibition of AA oxygenation (converted)
ENDPOINT: inhibition (%)
Please reply with the bare figure in % and do not write the unit itself.

{"columns": ["QUERY_SMILES", "ENDPOINT", "REPORTED_RESULT"],
 "data": [
  ["O=C(O)Cc1ccccc1Nc1ccccc1F", "inhibition", 0],
  ["Cc1ccc(Nc2ccccc2Cl)c(CC(=O)O)c1", "inhibition", 0],
  ["Cc1ccc(Nc2ccccc2F)c(CC(=O)O)c1", "inhibition", 0],
  ["Cc1ccc(Nc2ccccc2)c(CC(=O)O)c1", "inhibition", 10],
  ["Cc1ccc(Nc2c(Cl)cc(Cl)cc2Cl)c(CC(=O)O)c1", "inhibition", 32],
  ["Cc1ccc(Nc2c(Cl)cccc2Cl)c(CC(=O)O)c1", "inhibition", 60],
  ["O=C(O)Cc1ccccc1Nc1c(Cl)cc(Br)cc1Cl", "inhibition", 55],
  ["Cc1cccc(F)c1Nc1ccccc1CC(=O)O", "inhibition", 0]
]}

Please look at the following compound next.
Lookup: Assign inhibition to the following record: Cc1ccc(Nc2c(F)cccc2F)c(CC(=O)O)c1
Found: 0
